Reference for the values: patent US8748491B2

target: human serotonin re-uptake transporter (hSERT) (Homo sapiens); construct: host or cells: HEK-293; assay: Inhibition of tritiated serotonin uptake into transfected HEK-293 cells; assay type: cell-based; conditions: HEK-293 cells expressing hSERT; 20 nM [3H] serotonin, 40 min, 37° C.; mean ± s.e.m.
Sequence (P31645 whole entry): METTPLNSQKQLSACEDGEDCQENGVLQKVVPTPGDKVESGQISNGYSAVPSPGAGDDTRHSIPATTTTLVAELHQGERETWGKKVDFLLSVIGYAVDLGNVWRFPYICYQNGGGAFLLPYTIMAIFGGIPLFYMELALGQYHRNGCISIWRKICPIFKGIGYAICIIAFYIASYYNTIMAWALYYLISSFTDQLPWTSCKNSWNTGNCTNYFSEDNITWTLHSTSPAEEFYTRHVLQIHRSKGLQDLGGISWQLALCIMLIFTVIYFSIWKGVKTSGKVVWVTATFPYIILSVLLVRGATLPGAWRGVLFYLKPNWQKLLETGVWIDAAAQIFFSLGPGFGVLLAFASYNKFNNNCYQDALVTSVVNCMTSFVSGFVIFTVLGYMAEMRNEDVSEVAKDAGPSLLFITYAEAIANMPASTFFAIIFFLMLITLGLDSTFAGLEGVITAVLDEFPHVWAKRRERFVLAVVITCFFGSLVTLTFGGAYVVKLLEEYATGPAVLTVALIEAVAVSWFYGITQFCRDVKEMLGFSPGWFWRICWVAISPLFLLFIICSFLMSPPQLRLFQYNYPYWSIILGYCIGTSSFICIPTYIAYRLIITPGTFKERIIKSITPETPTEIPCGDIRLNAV
Endpoint name: IC50 (µM)
Express the result in µM but write the number alone.

Can you share its IC50? I mean this compound: COC(=O)C1(C)CCCC2(C)c3ccc(O)c(C(C)C)c3CCC12 (stereo not drawn) [Totarol-19-carboxylic acid methyl ester, totarol-19-carboxylic acid methyl ester]
7.2

Can you share its IC50? I mean this compound: COc1c(C(C)C)cc2c(c1O)C1(C(=O)O)CCCC(C)(C)C1CC2 (stereo not drawn) [Carnosic acid-12-methylether, carnosic acid 12-methyl ether]
22

Can you share its IC50? I mean this compound: CC(C)c1ccc2c(c1)C(=O)C[C@H]1[C@](C)(C(=O)O)CCC[C@]21C [7-Oxocallitrisic Acid, 7-oxocallitrisic acid]
32.9

Can you share its IC50? I mean this compound: CC(C)c1c(O)ccc2c1CC[C@H]1C(C)(C)CCC[C@]21C [Totarol, totarol]
7.5

Can you share its IC50? I mean this compound: CC(C)c1cc2c(c(O)c1O)[C@@]13CCCC(C)(C)[C@@H]1C[C@@H]2OC3 [20-Deoxo-carnosol, 20-deoxo-carnosol]
4.2

Can you share its IC50? I mean this compound: CC(C)c1cc2c(c(O)c1O)[C@@]1(C(=O)O)CCCC(C)(C)[C@@H]1CC2 [Carnosic acid, carnosic acid]
36.4
